- Test Protocol: Inhibition of virion associated RT activity relative to untreated, infected control in cord blood mononuclear cells (CBMC) infected with HIV -1 TC354 strain
pIC50: −log10 of the molar value.
Measurement Kind: pIC50

[[record]]
chem_smiles = "CC[C@@H](C)[C@@H]1NC(=O)[C@@H](NC[C@@H](O)[C@H](Cc2ccccc2)NC(=O)[C@@H](NC(=O)c2ccc3ccccc3n2)C(C)C)Cc2ccc(cc2)OCCCNC1=O"
measured_value = 7.02

[[record]]
chem_smiles = "O=C1N(Cc2ccc(CO)cc2)[C@H](Cc2ccccc2)[C@H](O)[C@@H](O)[C@@H](Cc2ccccc2)N1Cc1ccc(CO)cc1"
measured_value = 6.96

